I'd appreciate it if you could supply cytotoxicity at 10 µM values for the items below.
procedure.text: Toxicity liver stage against HepG2, at 10uM
Format: cell-based
Design: test concentration 10 uM, cell line HepG2-A16-CD81EGFP
assay.setup: human, HepG2-A16-CD81EGFP cells; read-out: INHIBITION
Note: unit % is implicit; provide only the numeric part.

Problem: Quote cytotoxicity at 10 µM reported for `COc1cc(F)c(S(=O)(=O)NCc2ccnc(N(C)C)n2)cc1OC` please.
Solution: -147

Problem: Quote cytotoxicity at 10 µM reported for `Cc1ccc(C(=O)N2CCC(Oc3ccc(F)cc3F)CC2)c(=O)[nH]1` please.
Solution: 7.63

Problem: Quote cytotoxicity at 10 µM reported for COc1ccccc1OCC(=O)NCC(C)(O)c1ccccc1 (stereo unspecified) please.
Solution: -5.37

Problem: Quote cytotoxicity at 10 µM reported for `CN(Cc1nc2ccccc2c(=O)[nH]1)C[C@@H]1CCCN2CCCC[C@H]12` please.
Solution: -6.01

Problem: Quote cytotoxicity at 10 µM reported for COc1ccc(OC)c(C2SCC(=O)Nc3n[nH]cc32)c1 (stereo unspecified) please.
Solution: 12.8

Problem: Quote cytotoxicity at 10 µM reported for `COc1cccc(CC(=O)N2CCC(NCc3c[nH]nc3C)CC2)c1` please.
Solution: -8.98

This collection of values is drawn from ChEMBL document CHEMBL4513216.
